The values you see were collected from paper PMC8847198.

# Target or test system: GABAARs in WT mouse forebrain membranes
# Assay explanation: Saturation analysis of [^3H]muscimol binding, WT forebrain membranes
# Measurement setup: with AA29504 (10 µM), 22 °C, one-site model, read-out: KD
Recorded endpoint: pKd
// scale note: pKd = -log10(conc_M); give the bare number

Q. Give the value of pKd reported for the following: [3H]C([3H])(N)c1cc(=O)[nH]o1 [[^3H]muscimol]
A. 7.64

----------
# Target or test system: recombinant α6β3 GABAARs expressed in HEK293 cells (Rattus norvegicus, UniProt P30191+P63079)
# Sequence (P30191 20-453): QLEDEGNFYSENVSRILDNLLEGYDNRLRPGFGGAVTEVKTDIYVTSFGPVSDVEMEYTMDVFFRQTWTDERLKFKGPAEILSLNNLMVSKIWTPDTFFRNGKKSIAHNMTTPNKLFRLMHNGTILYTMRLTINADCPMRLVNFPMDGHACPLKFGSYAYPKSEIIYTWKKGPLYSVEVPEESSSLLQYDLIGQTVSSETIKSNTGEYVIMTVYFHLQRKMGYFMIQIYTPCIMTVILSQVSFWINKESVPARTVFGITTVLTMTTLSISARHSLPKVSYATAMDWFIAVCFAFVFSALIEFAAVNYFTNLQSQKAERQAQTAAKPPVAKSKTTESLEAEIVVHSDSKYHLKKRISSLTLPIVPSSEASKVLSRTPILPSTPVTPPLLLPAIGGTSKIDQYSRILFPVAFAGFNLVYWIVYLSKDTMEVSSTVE
# Sequence (P63079 26-473): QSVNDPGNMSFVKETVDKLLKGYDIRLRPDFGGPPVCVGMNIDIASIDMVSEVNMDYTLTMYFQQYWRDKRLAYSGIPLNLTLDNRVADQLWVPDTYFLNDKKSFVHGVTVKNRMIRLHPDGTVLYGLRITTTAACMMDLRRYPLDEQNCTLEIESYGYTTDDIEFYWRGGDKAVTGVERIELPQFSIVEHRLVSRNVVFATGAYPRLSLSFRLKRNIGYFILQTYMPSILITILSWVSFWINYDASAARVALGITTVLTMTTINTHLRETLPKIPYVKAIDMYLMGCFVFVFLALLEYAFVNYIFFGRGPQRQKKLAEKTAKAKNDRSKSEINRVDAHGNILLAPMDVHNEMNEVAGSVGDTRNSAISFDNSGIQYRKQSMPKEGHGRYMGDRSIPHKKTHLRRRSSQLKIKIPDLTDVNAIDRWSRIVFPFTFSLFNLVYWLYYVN
# Assay explanation: GABA-independent displacement of [^3H]EBOB binding, recombinant α6β3
# Measurement setup: α6β3, HEK293, 1 nM [^3H]EBOB, no GABA
Recorded endpoint: IC50 (nM)
Give the value in nM but do not write nM after it.

Q. Give the value of IC50 reported for the following: CCOC(=O)Nc1ccc(NCc2c(C)cc(C)cc2C)cc1N
A. 400
